target: EGFR (Homo sapiens); assay: EGFR-TK inhibitory assay
Sequence (P00533 669-1210): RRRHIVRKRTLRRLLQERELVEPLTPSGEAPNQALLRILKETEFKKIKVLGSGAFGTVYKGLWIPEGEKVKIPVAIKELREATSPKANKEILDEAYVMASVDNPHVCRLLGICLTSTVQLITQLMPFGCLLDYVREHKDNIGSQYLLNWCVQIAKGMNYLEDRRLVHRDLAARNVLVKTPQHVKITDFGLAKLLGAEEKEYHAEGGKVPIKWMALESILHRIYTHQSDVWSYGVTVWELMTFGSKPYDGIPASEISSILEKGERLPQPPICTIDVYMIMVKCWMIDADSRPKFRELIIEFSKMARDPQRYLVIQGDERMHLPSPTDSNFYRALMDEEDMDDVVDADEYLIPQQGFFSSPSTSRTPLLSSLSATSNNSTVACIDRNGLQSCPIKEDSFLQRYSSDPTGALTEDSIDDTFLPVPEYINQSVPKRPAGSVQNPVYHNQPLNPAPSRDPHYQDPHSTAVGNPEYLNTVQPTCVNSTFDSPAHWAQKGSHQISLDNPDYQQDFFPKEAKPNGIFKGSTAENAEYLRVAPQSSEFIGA
attribute measured: IC50 (nM)

compound	unit	observed
Cc1ccc2c3c(c(=O)[nH]c2c1)C(c1ccccc1)C(C#N)=C(N)O3 (centres unmarked) [Compound 5d]	nM	87
COc1ccc(C2C(C#N)=C(N)Oc3c2c(=O)n(C)c2ccccc32)cc1 (centres unmarked) [Compound 5i]	nM	78
N#CC1=C(N)Oc2c(c(=O)[nH]c3ccccc23)C1c1ccccc1 (centres unmarked) [Compound 5a]	nM	84
COc1ccc(C2C(C#N)=C(N)Oc3c2c(=O)[nH]c2ccc(OC)cc32)cc1 (centres unmarked) [Compound 5h]	nM	75
Cn1c(=O)c2c(c3ccccc31)OC(N)=C(C#N)C2c1ccccc1 (centres unmarked) [Compound 5e]	nM	71

----------
assay: Cell viability assay (MTT) on MCF-10A normal cell line; type: cell-based; conditions: human, MCF-10A mammary gland epithelial normal cells, MCF-10A cells, 50 μM of each compound, four days of incubation
attribute measured: viability at 4 days, 50 µM (%)

compound	attribute measured	observed
COc1ccc(C2C(C#N)=C(N)Oc3c2c(=O)[nH]c2ccc(C)cc32)cc1 (stereo not drawn) [Compound 5g]	viability at 4 days, 50 µM	93
N#CC1=C(N)Oc2c(c(=O)[nH]c3ccccc23)C1c1ccccc1 (stereo not drawn) [Compound 5a]	viability at 4 days, 50 µM	92
COc1ccc(C2C(C#N)=C(N)Oc3c2c(=O)[nH]c2ccc(OC)cc32)cc1 (stereo not drawn) [Compound 5h]	viability at 4 days, 50 µM	91
